Biological target: T1, CTLA-4 on human T lymphocytes (PBMC, CD3+ T cells) (human, UniProt P16410 36-223)
T1 sequence (looked up): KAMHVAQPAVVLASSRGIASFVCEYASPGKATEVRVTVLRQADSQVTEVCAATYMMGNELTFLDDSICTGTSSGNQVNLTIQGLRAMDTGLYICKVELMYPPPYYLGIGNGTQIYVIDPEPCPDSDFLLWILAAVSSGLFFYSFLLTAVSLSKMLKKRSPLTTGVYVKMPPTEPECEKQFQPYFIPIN
Test: cell-based or functional assay
Give measured IL-2 secretion, pg/ml, at 30 ug/ml, N = 1 for each item. Keep answers brief.
Give bare numbers, in pg/mL.

Please supply IL-2 secretion, pg/ml, at 30 ug/ml, N = 1 for each of the following items, keeping them in order.
1. 40C4C6 fully human CTLA-4 antibody (human IgG1, kappa) (antibody, V domains shown, also called mAb09; mAb009) VH: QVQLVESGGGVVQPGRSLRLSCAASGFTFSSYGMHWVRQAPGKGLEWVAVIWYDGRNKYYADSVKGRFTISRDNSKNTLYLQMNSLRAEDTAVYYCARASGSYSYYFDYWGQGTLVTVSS VL: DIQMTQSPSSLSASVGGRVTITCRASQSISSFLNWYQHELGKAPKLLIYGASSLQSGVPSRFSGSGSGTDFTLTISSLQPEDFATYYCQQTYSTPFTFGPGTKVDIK
2. 92C8B6 fully human CTLA-4 antibody (human IgG1, kappa) (antibody, V domains shown, also called mAb42; mAb042) VH: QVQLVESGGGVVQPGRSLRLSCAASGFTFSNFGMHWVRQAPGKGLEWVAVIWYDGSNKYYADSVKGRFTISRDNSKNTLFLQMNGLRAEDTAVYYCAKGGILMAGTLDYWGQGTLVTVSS VL: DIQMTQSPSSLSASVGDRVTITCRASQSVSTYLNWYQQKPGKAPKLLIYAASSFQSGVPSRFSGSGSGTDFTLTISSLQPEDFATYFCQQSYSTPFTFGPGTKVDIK
3. 31C12F3 fully human CTLA-4 antibody (human IgG1, kappa) (antibody, V domains shown, also called mAb010) VH: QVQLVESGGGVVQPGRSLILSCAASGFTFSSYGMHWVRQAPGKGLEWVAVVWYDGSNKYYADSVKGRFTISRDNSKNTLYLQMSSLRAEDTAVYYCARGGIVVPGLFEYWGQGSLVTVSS VL: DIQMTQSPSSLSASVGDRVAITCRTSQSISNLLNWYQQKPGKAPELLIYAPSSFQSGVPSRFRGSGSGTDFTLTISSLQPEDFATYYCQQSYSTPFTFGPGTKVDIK

A)
1. 6840
2. 7240
3. 5920
